test system: human hepatocytes; assay: Hepatocyte stability, human; assay type: in vitro ADME; conditions: 2 μM, 0.5 million cells/ml
CLint (mL/min/kg) less than 20 mL/min/kg is YES; CLint (mL/min/kg) greater than or equal to 20 mL/min/kg is NO.

Solved entries (count: 3):
CNS(=O)(=O)Nc1nccc(Cc2c(CN(C)C)c3ccc(OC(=O)N(C)C)cc3oc2=O)c1F :: YES
CCCS(=O)(=O)Nc1cccc(Cc2c(CN3CCNCC3)c3cc(Cl)c(OC(=O)N(C)C)cc3oc2=O)c1F :: NO
CNS(=O)(=O)Nc1cccc(Cc2c(CN3CCNCC3)c3cc(F)c(OC(=O)N(C)C)cc3oc2=O)c1F :: YES

### Prompt Is 20 mL/min/kg strictly greater than the compound's reported CLint (mL/min/kg)? compound: CNS(=O)(=O)Nc1cccc(Cc2c(CN(C)C)c3ccc(OC(=O)N(C)C)cc3oc2=O)c1F
### Response NO

### Prompt Is 20 mL/min/kg strictly greater than the compound's reported CLint (mL/min/kg)? compound: CCS(=O)(=O)Nc1cccc(Cc2c(CN(C)C)c3ccc(OC(=O)N(C)C)cc3oc2=O)c1F
### Response NO

### Prompt Is 20 mL/min/kg strictly greater than the compound's reported CLint (mL/min/kg)? compound: CNS(=O)(=O)Nc1cccc(Cc2c(CN(C)C)c3cc(F)c(OC(=O)N(C)C)cc3oc2=O)c1F
### Response YES
